Please go through the items and note down their normalized growth.
Assay: chemical genetic growth profiling, strain panel (AID 1159580);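 note: tested at 20 µM; growth read once vehicle control cultures reached saturation at 30 °C; 1 = growth at the plate median or of vehicle wells; lower values mean less growth of the strain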
Applied Conditions: S. cerevisiae deletion strains, growth OD, locus YNL006W, strain LST8, stronger effect = lower value
The whole screen tested about 5,500 compounds, of which about 2,000 (36%) were called active. Roughly 18% stayed inconclusive and do not appear here. The list shows a part of the results.
Simply state the number, no unit and no words.

The compound listed as O=C(Nc1ccccc1)Nc1ccc(Cl)cc1[N+](=O)[O-] has a reported normalized growth of 0.976

The compound listed as Cc1cc(Cl)ccc1NNC(=O)c1sccc1Cl has a reported normalized growth of 0.898

The compound listed as Cc1ccc(NNC(=O)c2cccs2)cc1Cl has a reported normalized growth of 0.975

The compound listed as CCCCNC(=S)N/N=C\c1cc(Cl)cc(Cl)c1O has a reported normalized growth of 0.934

The compound listed as Oc1c(Cl)cc(Cl)cc1/C=N\NC(=S)Nc1cc(C(F)(F)F)cc(C(F)(F)F)c1 has a reported normalized growth of 0.673

The compound listed as O=[N+]([O-])c1cc(Cl)cc([N+](=O)[O-])c1Nc1ccccc1 has a reported normalized growth of 0.926

The compound listed as FC(F)(F)c1cccc(NC(=S)NN=C2CCCCCC2)c1 has a reported normalized growth of 0.986

The compound listed as O=C1Nc2ccccc2/C1=C\c1cccc([N+](=O)[O-])c1 has a reported normalized growth of 0.979

The compound listed as Cc1ccc(C)n1-c1ccc(/C=C2/C(=O)Nc3ccccc32)cc1 has a reported normalized growth of 0.976

====

Please go through the items and note down their normalized growth.
Assay: chemical genetic growth profiling, strain panel (AID 1159580)
Applied Conditions: S. cerevisiae deletion strains, growth OD, locus YKL048C, strain ELM1, stronger effect = lower value
The campaign covered roughly 5,500 compounds. About 2,000 (36%) were called active. About 18% were inconclusive and are not listed. The list shows a part of the results.
Simply state the number, no unit and no words.

The molecule listed as CCCCNC(=S)N/N=C\c1cc(Cl)cc(Cl)c1O has a reported normalized growth of 0.637

The molecule listed as COCCCNC(=S)N/N=C\c1cc(Cl)cc(Cl)c1O has a reported normalized growth of 0.936

The molecule listed as Oc1c(Br)cc(Br)cc1C=Nc1ccc(Sc2ccccc2)nc1Sc1ccccc1 has a reported normalized growth of 0.483

The molecule listed as O=[N+]([O-])c1cc(Cl)cc([N+](=O)[O-])c1Nc1ccccc1 has a reported normalized growth of 0.93

The molecule listed as CC(C)(C)C(=O)NC(=S)N/N=C\c1cc(Cl)cc(Cl)c1O has a reported normalized growth of 0.439

The molecule listed as O=C1/C(=C/c2ccccn2)CCc2ccccc21 has a reported normalized growth of 0.952

The molecule listed as Cc1cc(Cl)ccc1NNC(=O)c1sccc1Br has a reported normalized growth of 0.896

The molecule listed as Oc1c(Br)cc(Br)cc1/C=N\n1cnnc1 has a reported normalized growth of 0.289

====

Please go through the items and note down their normalized growth.
Assay: chemical genetic growth profiling, strain panel (AID 1159580)
Applied Conditions: S. cerevisiae deletion strains, growth OD, locus YDR159W, strain sac3, stronger effect = lower value
Screen size: about 5,500 compounds; about 2,000 (36%) were called active. About 18% were inconclusive and are not listed. Some of the results follow.

The compound listed as CC1O[C@@H](Oc2c(-c3ccc(O)c(O)c3)oc3cc(O)cc(O)c3c2=O)[C@H](O)[C@H](O)[C@H]1O (some centres undefined) has a reported normalized growth of 0.97 (inactive)

The compound listed as CC(CC(C(N)=O)(c1ccccc1)c1ccccc1)N(C)C (centres undefined) has a reported normalized growth of 0.981 (inactive)

The compound listed as COc1ccc(-c2cc(=O)c3c(O)cc(O[C@@H]4O[C@H](CO[C@H]5O[C@H](C)[C@@H](O)[C@H](O)[C@@H]5O)[C@@H](O)[C@H](O)[C@H]4O)cc3o2)cc1O has a reported normalized growth of 1.02 (inactive)

The compound listed as O=c1cc(-c2ccc(O)cc2)oc2cc(O[C@@H]3O[C@H](CO)[C@@H](O)[C@H](O)[C@H]3O)cc(O)c12 has a reported normalized growth of 1.06 (inactive)

====

Please go through the items and note down their normalized growth.
Assay: chemical genetic growth profiling, strain panel (AID 1159580);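 note: tested at 20 µM; growth read once vehicle control cultures reached saturation at 30 °C; 1 = growth at the plate median or of vehicle wells; lower values mean less growth of the strain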
Applied Conditions: S. cerevisiae deletion strains, growth OD, locus YJL095W, strain BCK1 (second series), stronger effect = lower value
In all, about 5,500 compounds went through this assay and about 2,000 (36%) were called active. Another 18% or so got no clear call; they are omitted. The list shows a part of the results.
Simply state the number, no unit and no words.

The compound listed as CCCC(C)(COC(N)=O)COC(=O)NC(C)C (stereo not drawn) has a reported normalized growth of 0.998

The compound listed as CC/C(=C(/CC)c1ccc(O)cc1)c1ccc(O)cc1 has a reported normalized growth of 0.982

The compound listed as CCC(N)C(O)c1ccc(O)c(O)c1 (stereo not drawn) has a reported normalized growth of 0.991

====

Please go through the items and note down their normalized growth.
Assay: chemical genetic growth profiling, strain panel (AID 1159580);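 note: tested at 20 µM; growth read once vehicle control cultures reached saturation at 30 °C; 1 = growth at the plate median or of vehicle wells; lower values mean less growth of the strain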
Applied Conditions: S. cerevisiae deletion strains, growth OD, locus YDR101C, strain arx1, stronger effect = lower value
Screen size: about 5,500 compounds; about 2,000 (36%) were called active. About 18% were inconclusive and are not listed. The list shows a part of the results.
Simply state the number, no unit and no words.

The compound listed as CC1(C)C2CC(=O)[C@]3(C)C(CC[C@@]4(C)[C@H](c5ccoc5)OC(=O)[C@H]5O[C@]543)[C@@]2(C)C(=O)C[C@H]1O (some centres not stated) has a reported normalized growth of 1

The compound listed as CC1(C)O[C@H]2CC(=O)OC[C@]23[C@H]2CC[C@@]4(C)[C@H](c5ccoc5)OC(=O)[C@H]5O[C@]54[C@]2(C)C(=O)C[C@@H]13 has a reported normalized growth of 0.998

The compound listed as CC(C)N(CCC(C(N)=O)(c1ccccc1)c1ccccn1)C(C)C (configuration not stated) has a reported normalized growth of 0.983

The compound listed as CCCC(C)(COC(N)=O)COC(=O)NC(C)C (configuration not stated) has a reported normalized growth of 0.983

The compound listed as CC(C)(C)NCC(O)c1cc(O)cc(O)c1 (configuration not stated) has a reported normalized growth of 0.977

The compound listed as CC1(C)C(=O)C=C[C@@]2(C)C1C=C[C@]1(C)C2CC[C@@]2(C)[C@H](c3ccoc3)OC(=O)C3OC321 (some centres not stated) has a reported normalized growth of 0.978

The compound listed as CC1(C)C(=O)C=C[C@@]2(C)C1CC(=O)[C@]1(C)C2CC[C@@]2(C)[C@H](c3ccoc3)OC(=O)[C@H]3O[C@]321 (some centres not stated) has a reported normalized growth of 0.991

====

Assay: chemical genetic growth profiling, strain panel (AID 1159580);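 note: tested at 20 µM; growth read once vehicle control cultures reached saturation at 30 °C; 1 = growth at the plate median or of vehicle wells; lower values mean less growth of the strain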
Applied Conditions: S. cerevisiae deletion strains, growth OD, locus YMR058W, strain fet3, stronger effect = lower value
In all, about 5,500 compounds went through this assay and about 2,000 (36%) were called active. About 18% were inconclusive and are not listed. The list shows a part of the results.
Please go through the items and note down their normalized growth.
Simply state the number, no unit and no words.

The compound listed as CC(=O)Oc1ccc2c(c1OC(C)=O)OCC1(O)Cc3c(cc(OC(C)=O)c(OC(C)=O)c3OC(C)=O)C21 (stereo not given) has a reported normalized growth of 1.02

The compound listed as COc1ccc2c(c1)CCC1C2CC[C@@]2(C)C1CC[C@@H]2O (stereo not given in full) has a reported normalized growth of 0.872

The compound listed as NS(=O)(=O)c1cc(C2(O)NC(=O)c3ccccc32)ccc1Cl (stereo not given) has a reported normalized growth of 1.01

The compound listed as Cc1cc(C2CCCCC2)n(O)c(=O)c1 has a reported normalized growth of 0.0627

The compound listed as CCCCCCC(C)OC(=O)COc1ccc(Cl)cc1Cl (stereo not given) has a reported normalized growth of 0.994

The compound listed as COc1ccc2c(c1)CCC1C2CCC2(C)C1C[C@@H](O)C2O (stereo not given in full) has a reported normalized growth of 0.968

The compound listed as C[C@]12CCC3c4ccc(O)cc4CCC3C1C[C@@H](O)[C@@H]2O (stereo not given in full) has a reported normalized growth of 1.01

The compound listed as Oc1ccc2c(c1)OCC1(O)Cc3cc(O)c(O)cc3C21 (stereo not given) has a reported normalized growth of 1.02

The compound listed as COc1ccc(-c2oc3cc(O[C@H]4O[C@H](CO)[C@@H](O)[C@H](O)[C@H]4O)c(OC)c(O)c3c(=O)c2OC)cc1O has a reported normalized growth of 0.998

The compound listed as CC(C)c1c(O)ccc2c1CCC1C(C)(C)CCC[C@]21C (stereo not given in full) has a reported normalized growth of 0.968

The compound listed as CCN(Cc1ccncc1)C(=O)C(CO)c1ccccc1 (stereo not given) has a reported normalized growth of 1.02

The compound listed as OCC(O)C(O)C(O)C(O)C(O)CO (stereo not given) has a reported normalized growth of 0.997

The compound listed as O=c1c(O)c(-c2ccc(O)c(O)c2)oc2c(O[C@@H]3O[C@H](CO)[C@H](O)[C@@H](O)[C@H]3O)c(O)cc(O)c12 has a reported normalized growth of 1.01

The compound listed as O=C1[O][Bi][O]c2ccccc21 has a reported normalized growth of 0.851

The compound listed as CC(C)c1c(O)c(-c2cc3c(c(C(C)C)c2O)CCC2C(C)(C)CCC[C@]32C)cc2c1CCC1C(C)(C)CCC[C@]21C (stereo not given in full) has a reported normalized growth of 0.982

Value source: PubChem BioAssay AID1159580
